- testTarget: 5-hydroxytryptamine receptor 2A (Homo sapiens) (UniProt P28223)
- Sequence (P28223 whole entry): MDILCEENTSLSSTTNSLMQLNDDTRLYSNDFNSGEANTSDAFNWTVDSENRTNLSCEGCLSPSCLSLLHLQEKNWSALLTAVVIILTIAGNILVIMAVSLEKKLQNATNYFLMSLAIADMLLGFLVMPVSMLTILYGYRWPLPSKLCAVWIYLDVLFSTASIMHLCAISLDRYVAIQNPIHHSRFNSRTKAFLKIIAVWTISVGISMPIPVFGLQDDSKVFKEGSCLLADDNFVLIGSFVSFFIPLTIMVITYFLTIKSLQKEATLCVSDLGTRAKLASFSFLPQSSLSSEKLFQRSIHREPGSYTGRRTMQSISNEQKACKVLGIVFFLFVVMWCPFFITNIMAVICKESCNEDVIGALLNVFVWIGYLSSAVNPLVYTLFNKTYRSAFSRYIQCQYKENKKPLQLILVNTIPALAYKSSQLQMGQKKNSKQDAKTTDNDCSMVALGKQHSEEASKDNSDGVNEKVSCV
- assayDetails: Antagonist activity at 5HT2A receptor (unknown origin) at 10 uM by radioligand binding assay relative to control
Decision: inhibition >= 10% yields Satisfied, all other cases yield Not satisfied.

COc1ccc(CCCc2cc(=O)c3c(O)cccc3o2)cc1 Not satisfied
O=c1cc(CCCc2ccc(C(F)(F)F)cc2)oc2cccc(O)c12 Satisfied
O=c1cc(CCCc2cccc(C(F)(F)F)c2)oc2cccc(O)c12 Not satisfied
Cc1ccc(CCCc2cc(=O)c3c(O)cccc3o2)cc1 Satisfied

Turning now to a further record.
Exam item: Does inhibition meet or surpass 10% for O=c1cc(CCCc2ccc(F)cc2)oc2cccc(O)c12 ?
Marked response: Satisfied
